B1: Azoarcus group I ribozyme (parent)
chain: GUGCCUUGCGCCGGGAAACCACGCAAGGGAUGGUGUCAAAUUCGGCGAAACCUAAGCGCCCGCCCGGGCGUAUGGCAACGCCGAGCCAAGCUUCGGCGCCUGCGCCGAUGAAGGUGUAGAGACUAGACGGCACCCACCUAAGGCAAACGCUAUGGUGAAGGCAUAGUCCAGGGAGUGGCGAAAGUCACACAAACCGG

- Variants of: B1
- measurementProtocol: reverse-splicing fitness (ratio to wild type); higher = more active; in vitro selection; Mg2+ level not given
Item-by-item account of reverse-splicing fitness
// return just the number, without any unit appended

Input: // query reverse-splicing fitness value for entry A111U A120G A145U U176G
Output: 0.00581

Input: Record: C82A A111C A120U
Output: 0.0221

Input: Likewise for C82A A111C A120G A145C C150A U176C ?
Output: 0.0105

Input: Also, C82G A111G A145U C150G C169U U176A please.
Output: 0.00966

Input: Another: A111C A120U C169U U176G
Output: 0.00263

Input: Now consider C82A A111C A120U A145U U176G and answer again.
Output: 0.00339

Input: Entry A111C A145G C150U C169G U176A please
Output: 0.0138

Input: Do the same for C82A A111U A120C C150A C169G U176A please
Output: 0.0199

Input: And for C82G A111C A145C C150G C169G U176A ?
Output: 0.00893

Input: Repeat with C82U A111U A120U A145G C150U C169A U176G
Output: 0.00269

Input: Please give the result for C82A A145G C150G C169U U176C too.
Output: 0.0136

Input: Quick one: C82G A111C A120G U176G
Output: 0.00753

Input: Param item: C82A A111C A120G A145U C169A U176G
Output: 0.00466

Input: Item: C82A A111C A120G A145C C169U U176A
Output: 0.0138

Input: Record: C82U A120C A145U C150U
Output: 0.109

Input: Let us now turn to C82G A111C C150A C169G U176C
Output: 0.024

Input: Another variant to check: C82U A120C A145C C169G U176A
Output: 0.0129
